experiment: mRNA encapsulation efficiency by Ribo-green assay; assay type: physicochemical; conditions: mRNA formulation, compound:DOPE:Cholesterol:DMG-PEG=50:10:38.5:1.5, N/P ratio 6
Encapsulation efficiency reference
Answer with a number only, understood to be in %.

Consider the reported Encapsulation efficiency for these molecules:
Q: For CCCCCCCCC(OC(=O)CCCCCCCN(CCO)CCCCCCCC(=O)OC(CCCCCCCC)C1CC1)C1CC1 (centres unmarked) , what is its reported Encapsulation efficiency?
A: 98.4

Q: For CCCCCCCCC(OC(=O)CCCCCCCN(C)CCCCCCCC(=O)OC(CCCCCCCC)C1CCCCC1)C1CCCCC1 (centres unmarked) , what is its reported Encapsulation efficiency?
A: 97.6

Q: For CCCCCCC(OC(=O)CCCCCCCN(C)CCCCCCCC(=O)OC(CCCCCC)C1CC1)C1CC1 (centres unmarked) , what is its reported Encapsulation efficiency?
A: 92.1

Q: For CCCCCCCCC(C(=O)OCCCCCCCN(C)CCCCCCCOC(=O)C(CCCCCCCC)C1CC1)C1CC1 (centres unmarked) , what is its reported Encapsulation efficiency?
A: 91.1

---
Q: For CCCCCCCCCCC(OC(=O)CCCCCCCN(C)CCCCCCCC(=O)OC(CCCCCCCCCC)C1CC1)C1CC1 (centres unmarked) , what is its reported Encapsulation efficiency?
A: 95.4
